These measurements were taken from ChEMBL document CHEMBL4689842.

Assign Population Mitochondria Different-Phenotype (%) to each entry below.
- System: U2OS
- test_name: Multiplex assay against U2OS
- Type: toxicity, cell-based
- particulars: human, 48 h, 10 µM, compound concentration 10 uM, replicate 2
One number for each entry, in %.

Sample answers from the record:
{"molecule": "Oc1cccc(-c2nc(N3CCOCC3)c3oc4ncccc4c3n2)c1", "number": 77}
{"molecule": "CN1C(=O)[C@@H](NC(=O)c2cc3ccccc3[nH]2)N=C(c2ccccc2)c2ccccc21 [DEVAZEPIDE]", "number": 55}
{"molecule": "CCCCN(CC)c1nc(C)nc2c1c(C)cn2-c1c(C)cc(C)cc1C.Cl", "number": 38}

Hi, could you look up Population Mitochondria Different-Phenotype (%) for each item in my list?
1. Cc1c(Nc2ccc(S(=O)(=O)N3CCN(C)CC3)cc2F)nc2ccc(-c3cnn(C4CC4)c3)cn2c1=O
2. CN(c1cc(C(F)(F)F)nc(OCCC(=O)O)n1)c1cccc2c1CCC2
3. N#Cc1cccc(C(=O)Nc2cc(-c3ccccc3)nn2-c2ccccc2)c1

output:
17
6
42

Report Population Mitochondria Different-Phenotype (%) for every entry below.
1. C=CC(=O)Nc1cc(-n2c(=O)ccc3cnc4ccc(-c5ccc(NS(C)(=O)=O)cc5)cc4c32)ccc1C
2. Cc1ccc(S(=O)(=O)NC2c3ccccc3Oc3ccccc32)cc1
3. CC(C)[C@H](CO)Nc1nc(Nc2cccc(Cl)c2)c2ncn(C(C)C)c2n1
4. N#CCNC(=O)c1ccc(-c2ccnc(Nc3ccc(N4CCOCC4)cc3)n2)cc1
5. Cl.NC[C@@H]1O[C@H](C23CC4CC(CC(C4)C2)C3)Cc2c1ccc(O)c2O

output:
[33, 14, 87, 38, 53]

----------
- Tested on: U2OS
- test_name: Incucyte cell viability with U2OS; further: filed as whole numbers so only -1 and 0 and 1 occur
- Type: toxicity, cell-based
- particulars: human, 0 h, 10 µM, compound concentration 10 uM, replicate number 2, timepoint 0 hours
reported_property: Growth Rate
Numbers only.

Example entries begin here.
{"chemical_structure": "COc1ncc(F)cc1CNc1ccc(Cc2c[nH]c3ncc(C)cc23)c(F)n1", "measurement_target": "U2OS", "Growth Rate": 0}
{"chemical_structure": "CCOC(=O)CCNc1cc(N2CCc3ccccc3CC2)nc(-c2ccccn2)n1", "measurement_target": "U2OS", "Growth Rate": 1}
{"chemical_structure": "O=C(N1CCS(=O)(=O)CC1)N1C[C@H](c2ccc(OC(F)(F)F)cc2)C[C@H](c2nc(C3CC3)no2)C1", "measurement_target": "U2OS", "Growth Rate": 0}
{"chemical_structure": "C=CC(=O)Nc1cc(-n2c(=O)ccc3cnc4ccc(-c5ccc(NS(C)(=O)=O)cc5)cc4c32)ccc1C", "measurement_target": "U2OS", "Growth Rate": 1}

Items follow; give Growth Rate for each.
1. CC(C)c1cc(Nc2nc(N3CCC[C@H](N)C3)ncc2C(N)=O)cc(C(C)C)n1
2. CN1CCN(Cc2ccc(-c3cnc4[nH]cc(-c5ccc6[nH]ccc6c5)c4c3)cc2)CC1
3. COc1ccc(CCc2nc3cc(-c4c(C)noc4C)ccc3n2C[C@H](C)N2CCOCC2)cc1Cl
4. N#CC1(c2ccccn2)CCN(Cc2cc(C(=O)O)c(=O)n3ccccc23)CC1
5. Cc1c(F)cccc1NC(=O)Nc1ccc(Cl)c(S(=O)(=O)[C@H]2CCCNC2)c1O

output:
0
0
0
1
1
